Ref: paper PMC6257782

Target: CETP (from rabbit serum) (Oryctolagus cuniculus, UniProt P22687)
Construct: native CETP in whole rabbit serum, not purified; BioVision fluorescent CE transfer kit (introduction describes human CETP, 476 residues, PDB 2OBD, not the assayed protein)
Sequence (P22687 2-497): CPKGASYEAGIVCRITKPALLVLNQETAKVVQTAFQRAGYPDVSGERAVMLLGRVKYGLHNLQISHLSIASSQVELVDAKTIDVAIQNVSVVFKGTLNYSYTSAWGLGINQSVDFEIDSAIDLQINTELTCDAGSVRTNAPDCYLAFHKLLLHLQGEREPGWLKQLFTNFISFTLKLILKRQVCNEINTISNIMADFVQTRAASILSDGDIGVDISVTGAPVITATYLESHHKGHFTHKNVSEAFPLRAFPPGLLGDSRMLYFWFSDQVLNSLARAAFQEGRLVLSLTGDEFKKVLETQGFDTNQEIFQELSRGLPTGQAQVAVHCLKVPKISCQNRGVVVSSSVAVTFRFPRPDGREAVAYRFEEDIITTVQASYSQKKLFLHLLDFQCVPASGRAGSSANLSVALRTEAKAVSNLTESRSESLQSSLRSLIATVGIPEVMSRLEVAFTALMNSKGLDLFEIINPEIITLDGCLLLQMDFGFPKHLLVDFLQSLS
Test: fluorescent neutral lipid (CE) transfer assay, BioVision kit
Type: biochemical
Details: read-out: In vitro % inhibition of CETP at 10 μM
From the text: fluorescent neutral lipid (CE) transfer assay, BioVision kit on CETP (from rabbit serum)
Metric name: inhibition at 10 µM (%)
Write down the numeric answer in % and omit the unit.

Would you please look over these solved cases?
{"columns": ["Smiles repr", "inhibition at 10 µM [%]"],
 "data": [
  ["COc1ccc(C(=O)c2ccc(NCc3cccc(C(F)(F)F)c3)cc2)c(OC)c1", 19.5],
  ["COc1cccc(CNc2ccc(C(=O)c3ccc(C)cc3)cc2)c1", 16.4],
  ["Cc1ccc(C(=O)c2ccc(NCc3ccc(C(F)(F)F)cc3)cc2)cc1", 12.6]
]}

Given the compound Cc1ccc(C(=O)c2ccc(NCc3cccc(C(F)(F)F)c3)cc2)cc1 , what is its reported inhibition at 10 µM?
16.7

Given the compound COc1ccc(C(=O)c2ccc(NCc3ccc(C(F)(F)F)cc3)cc2)c(OC)c1 , what is its reported inhibition at 10 µM?
19.8
